- Test system: Zea Mays (ZEAMX)
- TEST_DETAILS: B2 Post-Emergence Efficacy Test 2
- Type: in vivo
- CONDITION_NOTES: 250 g/ha, after 13 days
PROPERTY_LABEL: percentage damage caused to the plant, five point scale, ZEAMX

>  <COMPOUND>
Cc1nn(C)c(=O)c(-c2c(F)ccc(Cl)c2CCc2ccc3scnc3c2)c1O [Compound 1.350]

>  <OBSERVED_MEASUREMENT>
3 (3=40-59%)

$$$$
>  <COMPOUND>
Cc1nn(C)c(=O)c(-c2c(F)ccc(Cl)c2CCc2nn(C)c3ccccc23)c1O [Compound 1.344]

>  <OBSERVED_MEASUREMENT>
1 (1=0-19%)

$$$$
>  <COMPOUND>
Cc1nn(C)c(=O)c(-c2c(F)ccc(Cl)c2CCc2cnc3c(ccn3C)c2)c1O [Compound 1.345]

>  <OBSERVED_MEASUREMENT>
2 (2=20-39%)

$$$$

Entry under review: Cc1nn(C)c(=O)c(-c2c(F)ccc(Cl)c2CCc2ccc3c(c2)OC(F)(F)O3)c1O [Compound 1.342] . Reported percentage damage caused to the plant, five point scale, ZEAMX?
4 (4=60-79%)
